assay: pKa measurement; assay type: physicochemical; conditions: read-out: pKa
Form field: pKa (one value per entry).
attributeMeasured: pKa

- molecule: "CCCCOP(=O)(O)OC[C@H]1O[C@@H](n2cc(C)c(=O)[nH]c2=O)C[C@H]1OP(=O)(O)OCCCC"
  attributeMeasured: "pKa"
  endpointResult: 2.3
- molecule: "COC1[C@@H](OP(=O)(O)OCCCCO)[C@@H](COP(=O)(O)OCCCCO)O[C@H]1n1ccc(=O)[nH]c1=O (stereo partly drawn)"
  attributeMeasured: "pKa"
  endpointResult: 2.3
- molecule: "CCCCOP(=O)(O)OCCOCCOP(=O)(O)OCCCC"
  attributeMeasured: "pKa"
  endpointResult: 2.28

The values you see were collected from patent US12030908B2.
